- assaySystem: SXR (nuclear receptor subfamily 1 group I member 2) (Homo sapiens)
- Sequence (O75469 whole entry, the tested form may be a part): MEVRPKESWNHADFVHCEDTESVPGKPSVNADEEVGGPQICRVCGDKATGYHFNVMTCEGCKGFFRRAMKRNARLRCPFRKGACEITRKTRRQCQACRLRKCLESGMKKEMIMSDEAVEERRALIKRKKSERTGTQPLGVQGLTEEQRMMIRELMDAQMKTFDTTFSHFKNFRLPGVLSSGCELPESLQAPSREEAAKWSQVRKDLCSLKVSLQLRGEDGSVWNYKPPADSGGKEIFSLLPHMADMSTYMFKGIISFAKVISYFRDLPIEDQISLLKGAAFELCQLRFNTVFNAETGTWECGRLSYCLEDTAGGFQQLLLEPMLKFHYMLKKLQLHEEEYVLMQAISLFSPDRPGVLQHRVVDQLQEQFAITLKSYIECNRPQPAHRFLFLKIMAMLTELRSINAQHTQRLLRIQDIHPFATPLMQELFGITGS
- assayMethodText: Induction of human SXR transcriptional activity expressed in human HepG2 cells coexpressing GAL4 at 5 X 10^-6 M after 48 hrs by luciferase reporter gene assay relative to vehicle-treated control
- Format: cell-based
- testSettings: HepG2 cells expressing human SXR and GAL4, read-out: FC
reportedMetric: fold induction at 48 h, 5 µM
Give only the figure.

## Task Need fold induction at 48 h, 5 µM, item `[2H]c1c([2H])c([2H])c2c(c1[2H])C(=O)C(C/C=C(\C)CC/C=C(\C)CC/C=C(\C)CCC=C(C)C)=C(C([2H])([2H])[2H])C2=O`
## Result 7
